Measured inhibition at 0.05 µM, listed per entry.
Biological target: FGF-R1 intracellular kinase domain (Homo sapiens, UniProt P11362, C488A/C584S/L457V)
Construct: starting from the endogenous methionine residue 456 to glutamate 766; made in house; host or cells: baculovirus vector expression system
Sequence (P11362 456-766 L457V/C488A/C584S): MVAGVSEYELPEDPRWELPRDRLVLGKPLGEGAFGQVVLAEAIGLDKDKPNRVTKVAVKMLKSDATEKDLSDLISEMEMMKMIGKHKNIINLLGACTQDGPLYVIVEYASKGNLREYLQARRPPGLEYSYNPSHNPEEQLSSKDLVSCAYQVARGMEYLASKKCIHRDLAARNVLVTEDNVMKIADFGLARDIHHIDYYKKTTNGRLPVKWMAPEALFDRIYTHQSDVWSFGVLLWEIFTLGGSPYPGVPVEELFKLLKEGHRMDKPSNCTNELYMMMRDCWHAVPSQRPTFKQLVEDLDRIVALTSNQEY
Assay: FGF-R spectrophotometric assay
Type: biochemical
Details: 50 nM test compound; read-out: FGF-P (% inh @ 50 nM)

Worked set:
Cc1ccnc(NC(=O)Cc2ccc(Oc3ccnc4cc(C(=O)N5CC[C@@H](O)C5)sc34)cc2)c1
0 to 5%
O=C(Cc1ccc(Oc2ccnc3cc(C(=O)N4CCC4)sc23)cc1)Nc1ccc(Br)cn1
0 to 5%
Cc1cc(NC(=O)C(O)c2ccc(Oc3ccnc4cc(C(=O)N5CCC5)sc34)cc2)on1 (centres unmarked)
5 to 10%
Cc1cc(C)nc(NC(=O)Cc2ccc(Oc3ccnc4cc(C(=O)N5CCC5)sc34)cc2Cl)c1
> 10%
O=C(Cc1ccc(Oc2ccnc3cc(C(=O)N4CCC4)sc23)cc1Cl)Nc1ccc(Cl)cn1
> 10%
CNC(=O)C(O)c1ccc(Oc2ccnc3cc(C(=O)N4CC[C@@H](O)C4)sc23)cc1 (some centres unmarked)
0 to 5%
Cc1ccc(NC(=O)Cc2ccc(Oc3ccnc4cc(C(=O)N5CCC5)sc34)cc2)nc1
0 to 5%
O=C(Cc1ccc(Oc2ccnc3cc(C(=O)N4CCC4)sc23)cc1)Nc1ccc2ccccc2n1
0 to 5%
CNC(=O)Cc1ccc(Oc2ccnc3cc(C(=O)N4CC[C@@H](O)C4)sc23)c(F)c1
0 to 5%
Cc1ccc(CNC(=O)Cc2ccc(Oc3ccnc4cc(-c5nccn5C)sc34)cc2Cl)o1
0 to 5%

// query Request the reported inhibition at 0.05 µM associated with `CO[C@@H]1CCN(C(=O)c2cc3nccc(Oc4ccc(CC(=O)Nc5ccccn5)c(Cl)c4)c3s2)C1`
// result 0 to 5%

// query Please report the recorded inhibition at 0.05 µM for `CNC(=O)C(=O)c1ccc(Oc2ccnc3cc(C(=O)N4CC[C@@H](OC)C4)sc23)cc1` .
// result > 10%

// query Which inhibition at 0.05 µM reading was recorded for the compound CNC(=O)C(OC)c1ccc(Oc2ccnc3cc(-c4nccn4C)sc23)cc1Cl (centres unmarked) ?
// result 0 to 5%

// query What measured inhibition at 0.05 µM goes with `O=C(Cc1ccc(Oc2ccnc3cc(C(=O)N4CCC4)sc23)cc1)Nc1cc[nH]n1` ?
// result 0 to 5%

// query # lookup: inhibition at 0.05 µM of `Cc1cc(C)nc(NC(=O)Cc2ccc(Oc3ccnc4cc(C(=O)N5CCC5)sc34)cc2)c1`
// result 0 to 5%

// query Any idea what its inhibition at 0.05 µM is? The compound is COC(C(=O)Nc1cc(C)no1)c1ccc(Oc2ccnc3cc(C(=O)N4CCC4)sc23)cc1 (centres unmarked)
// result 0 to 5%

---

Target: unphosphorylated VEGF-R2D50 (FLVK), cytosolic domain of human VEGF-R2 (Homo sapiens, UniProt P35968, DEL940-989/E990V)
Construct: VEGF-R2D50 contains residues 806–939 and 990–1171
Sequence (P35968 with tags, fused parts or gaps DEL940-989/E990V limits assumed): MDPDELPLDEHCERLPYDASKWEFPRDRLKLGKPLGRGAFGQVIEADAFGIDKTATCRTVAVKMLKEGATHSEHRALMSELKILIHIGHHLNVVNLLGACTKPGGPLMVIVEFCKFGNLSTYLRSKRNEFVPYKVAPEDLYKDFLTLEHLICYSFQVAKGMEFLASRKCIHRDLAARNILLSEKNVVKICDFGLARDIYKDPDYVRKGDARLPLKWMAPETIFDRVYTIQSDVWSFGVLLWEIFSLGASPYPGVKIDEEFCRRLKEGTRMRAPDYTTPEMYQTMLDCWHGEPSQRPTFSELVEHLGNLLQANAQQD
Test: VEGF-R2 coupled spectrophotometric assay (FLVK)
pKi: −log10 of the molar value.
Property measured: pKi

See these solved cases before continuing.
CNC(=O)Cc1ccc(Oc2ccnc3cc(C(=O)N4CC[C@@H](O)C4)sc23)cc1Cl
< 8.00
CNC(=O)C(O)c1ccc(Oc2ccnc3cc(C(=O)N4CC[C@@H](O)C4)sc23)cc1 (stereo partly shown)
8.00 to 9.00
O=C(Cc1ccc(Oc2ccnc3cc(C(=O)N4CC[C@@H](O)C4)sc23)cc1)Nc1ccccn1
8.00 to 9.00

Shifting focus to the molecule that follows.
// query Need pKi of `CNC(=O)Cc1ccc(Oc2ccnc3cc(C(=O)N4CC[C@@H](O)C4)sc23)c(F)c1` , thanks.
// result < 8.00
